Taken from PubChem BioAssay.

The reader will find reported z-score values listed item by item below.
# experimentDescription: DUSP6 inhibitors restoring Erk phosphorylation by chemical complementation, primary imaging in DUSP6-transfected HeLa (AID 609)
# experimentalConditions: HeLa MKP-3 transfected, phospho-Erk imaging KS statistic; measured here: nuclear c-Myc green intensity z-score; at 10 µM; cells stimulated with TPA for 15 min
# output: bare number, no unit

Inquiry: Which z-score is reported for this compound? CCOC(=O)c1[nH]c2ccc(OC)cc2c1NC(=O)CCN1CCc2ccccc2C1
Reply text: -2.02

Inquiry: Any idea what its z-score is? The compound is Cc1cc(N2C(=O)C(=O)/C(=C(/O)c3ccccc3)C2c2cccs2)no1 (stereo not drawn)
Reply text: -0.396

Inquiry: Requested read-out: z-score. Entry: CN(C)c1nc(OCCNC(=O)Nc2ccccc2)nc(N(C)C)n1
Reply text: -0.537

Inquiry: Reported z-score for CCSc1nnc(NC(=O)C(C(F)(F)F)C(F)(F)F)s1 : what is it?
Reply text: -1.31

Inquiry: Please report the recorded z-score for Cc1cccc(N2CC(=O)N(c3cccc(C)c3)CC2=O)c1 .
Reply text: 0.808

Inquiry: Entry under review: CC(C)c1ccc(O)c(N)c1 . Reported z-score?
Reply text: -1.5

Inquiry: Dear colleague, I am looking for the recorded z-score of the following compound: CC1(C)Cc2c(c(N3CCOCC3)nc3sc4c(NCc5ccco5)nnnc4c23)CS1
Reply text: -0.977

Inquiry: So what's the measured z-score for this one? Cc1cc(=O)oc(C)c1C(=O)NCC1CCCO1 (stereo not drawn)
Reply text: 0.0774

---

# testSystem: Voltage-gated potassium channel subunit beta-2 (Rattus norvegicus)
# experimentDescription: KvBeta positive modulators, primary screen, biochemical, NADPH fluorescence (AID 623);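 note: fluorescence intensity change per second fitted from 20 to 320 s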
# experimentalConditions: Recombinant KvBeta, NADPH fluorescence decrease slope, 10 min; at 10 µM; stronger effect = lower value
experimentalEndpoint: NADPH fluorescence slope
Hey, just send me the number, nothing else.

Here are 2 compounds together with their reported answers.
Inquiry: Give the measured NADPH fluorescence slope of CC1(C)Cc2c(C#N)c(SCc3nc4ccccc4[nH]3)nc(N3CCOCC3)c2CO1 .
Reply text: 1.4e-05

Inquiry: Fill blank: measured NADPH fluorescence slope of the compound Cc1ccc(-c2nnc(-c3ccccc3)o2)cc1Br is ____.
Reply text: 6e-06

New cases:
Inquiry: // returns reported NADPH fluorescence slope for input Cc1ccccc1-n1nc(C)c2cc(C(=O)NCc3cccnc3)sc21
Reply text: -6.5e-05

Inquiry: Form field: reported NADPH fluorescence slope of CC1(C)CC(=O)C(C=NCCN2CCN(CCc3ccccc3)CC2)=C(O)C1
Reply text: 1.2e-05

Inquiry: Fill in the blank: the reported NADPH fluorescence slope of O=C(O)c1cc2c(s1)CCCC2 is ____.
Reply text: -2.9e-06

Inquiry: Returns the measured NADPH fluorescence slope for the input compound. Input: O=S(=O)(c1ccccc1)N1CCN(S(=O)(=O)c2ccccc2)C1
Reply text: -5.3e-05

Inquiry: Consider the compound shown here: N#CC1=C(N)OC2=C(C(=O)CCC2)[C@]12C(=O)N(CC(N)=O)c1ccccc12 What is its recorded NADPH fluorescence slope?
Reply text: -3e-05

Inquiry: Quick one: NADPH fluorescence slope of CC(=O)Nc1ccc(OCC(O)CN2CCN(c3cccc(Cl)c3)CC2)cc1 (stereo not given) ?
Reply text: -4.2e-05

Inquiry: Requested field: NADPH fluorescence slope. Item: O=C1NC(Nc2ccccn2)(C(F)(F)F)C(=O)N1c1ccc(F)cc1 (stereo not given)
Reply text: -4.6e-05

Inquiry: Given the entry CSc1nc2[nH]c3c(c2c2nncn12)CC(C)(C)OC3 , report its measured NADPH fluorescence slope.
Reply text: -8.3e-05
